- Test system: Caco-2 cells
- TEST SUMMARY: Caco-2 permeability
- Assay type: in vitro ADME
- CONDITION INFO: A-B, 50 µM, 120 min
Exercise: state measured Caco2 Pm for each of the compounds provided.

[Q] Any idea what Caco2 Pm came out for NS(=O)(=O)NCCNc1nonc1C(=NO)Nc1ccc(F)c(Cl)c1 on Caco-2 cells?
[A] 4.3 × (10)^−6 cm/s

[Q] Next up: CC(=O)NCCNc1nonc1/C(=N/O)Nc1ccc(F)c(Br)c1
[A] 19 × (10)^−6 cm/s

[Q] Next up: COCCNc1nonc1/C(=N/O)Nc1ccc(F)c(Br)c1
[A] 44 × (10)^−6 cm/s

[Q] Next up: NCCNc1nonc1/C(=N/O)Nc1ccc(F)c(Br)c1
[A] 1.8 × (10)^−6 cm/s

[Q] Next up: OCCNc1nonc1/C(=N/O)Nc1ccc(F)c(Br)c1
[A] 31 × (10)^−6 cm/s

----------
Exercise: state measured LE (ligand efficiency) for each of the compounds provided.
- TARGET SYSTEM: IDO1 in HeLa cells (Homo sapiens, UniProt P14902)
- Sequence (P14902 whole entry): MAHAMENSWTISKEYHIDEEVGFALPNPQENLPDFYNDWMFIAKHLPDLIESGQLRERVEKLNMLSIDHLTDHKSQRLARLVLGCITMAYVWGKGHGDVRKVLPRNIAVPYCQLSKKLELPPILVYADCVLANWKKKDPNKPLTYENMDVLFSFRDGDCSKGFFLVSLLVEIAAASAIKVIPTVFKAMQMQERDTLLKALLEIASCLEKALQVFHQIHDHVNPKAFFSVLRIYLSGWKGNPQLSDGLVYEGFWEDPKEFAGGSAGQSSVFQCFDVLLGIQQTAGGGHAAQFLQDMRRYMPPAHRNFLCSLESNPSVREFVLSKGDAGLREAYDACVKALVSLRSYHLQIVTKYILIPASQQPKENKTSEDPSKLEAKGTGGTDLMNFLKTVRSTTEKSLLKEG
- TEST SUMMARY: HeLa cell-based IDO1/kynurenine assay
- CONDITION INFO: calculated using HeLa pIC50

[Q] What does the data say about its LE (ligand efficiency)? Entry: OCCNc1nonc1/C(=N/O)Nc1ccc(F)c(Br)c1 [Compound 4b]
[A] 0.51

[Q] Next up: CC(=O)NCCNc1nonc1/C(=N/O)Nc1ccc(F)c(Br)c1 [Compound 4d]
[A] 0.45

[Q] Next up: COCCNc1nonc1/C(=N/O)Nc1ccc(F)c(Br)c1 [Compound 4a]
[A] 0.45

[Q] Next up: NCCNc1nonc1/C(=N/O)Nc1ccc(F)c(Br)c1 [Compound 4c]
[A] 0.47
